TEST TARGET: Recombinant human renin (Homo sapiens, UniProt P00797)
Construct: isolate the active form (residues 67-406); made in house; host or cells: FreeStyle 293-F cells, transient expression of pcDNA3.1(+)/hREN
Sequence (P00797 67-406): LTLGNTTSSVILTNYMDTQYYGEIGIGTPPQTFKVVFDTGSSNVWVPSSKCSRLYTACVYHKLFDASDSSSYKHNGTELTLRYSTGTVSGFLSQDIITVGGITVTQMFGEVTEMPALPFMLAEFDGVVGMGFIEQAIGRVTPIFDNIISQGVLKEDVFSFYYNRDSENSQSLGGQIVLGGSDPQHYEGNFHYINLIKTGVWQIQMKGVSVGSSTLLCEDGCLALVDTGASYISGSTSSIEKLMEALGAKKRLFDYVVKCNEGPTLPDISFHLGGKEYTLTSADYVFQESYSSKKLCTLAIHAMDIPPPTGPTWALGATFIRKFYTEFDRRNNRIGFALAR
ASSAY SUMMARY: In vitro enzymatic activity assay of renin inhibitors (fluorescence, QXL520/HiLyteFluo488 peptide substrate)
Assay type: biochemical
CONDITION DETAILS: recombinant human renin 3 nM, 1 μM substrate, pre-incubated 10 minutes at 37° C., incubation one hour, pH 7.4, 5% DMSO; read-out: IC50 of Exemplified Compounds Against Renin
pIC50: −log10 of the molar value.
pIC50 values by entry

Known results for compounds:
INSERT INTO results (compound, test_target, result) VALUES
  ('COc1ccccc1-n1c(-c2ccccc2)c(C(=O)N2CCNCC2)n(CCNC(=O)CC(C)C)c1=O [Example 169]', 'Recombinant human renin (Homo sapiens, UniProt P00797)', '< 6.00'),
  ('O=C(c1c(-c2ccccc2)n(C2CCCCC2)c(=O)n1Cc1cc(Cl)nc(N2CCOCC2)c1)N1CCNCC1 [Example 90]', 'Recombinant human renin (Homo sapiens, UniProt P00797)', '6.00 to 6.30'),
  ('Cc1ccccc1-n1c(-c2ccccc2)c(C(=O)N2CCNCC2)n(CCNC(=O)C(C)C)c1=O [Example 236]', 'Recombinant human renin (Homo sapiens, UniProt P00797)', '< 6.00');

## Input Which pIC50 value belongs to COCCOc1cccc(-n2c(-c3cccc(Cl)c3)c(C(=O)N3CCNCC3)[nH]c2=O)c1 [Example 43] ?
## Output < 6.00

* * *

TEST TARGET: Recombinant human renin (Homo sapiens, UniProt P00797)
Construct: isolate the active form (residues 67-406); made in house; host or cells: FreeStyle 293-F cells, transient expression of pcDNA3.1(+)/hREN
Sequence (P00797 67-406): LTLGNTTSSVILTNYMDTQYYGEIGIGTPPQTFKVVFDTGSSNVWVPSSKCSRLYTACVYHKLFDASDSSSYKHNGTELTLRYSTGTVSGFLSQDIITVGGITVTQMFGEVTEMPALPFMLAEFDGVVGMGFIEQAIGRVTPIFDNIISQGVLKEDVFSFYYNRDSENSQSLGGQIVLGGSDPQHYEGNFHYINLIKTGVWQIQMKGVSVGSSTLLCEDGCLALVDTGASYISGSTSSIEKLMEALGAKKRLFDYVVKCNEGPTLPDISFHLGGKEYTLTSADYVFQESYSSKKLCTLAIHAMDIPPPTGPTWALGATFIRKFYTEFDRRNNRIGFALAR
ASSAY SUMMARY: In vitro enzymatic activity assay of renin inhibitors (fluorescence, QXL520/HiLyteFluo488 peptide substrate)
Format: biochemical
CONDITION DETAILS: recombinant human renin 3 nM, 1 μM substrate, pre-incubated 10 minutes at 37° C., incubation one hour, pH 7.4, 5% DMSO; read-out: IC50 of Exemplified Compounds Against Renin
IC50 values by entry

Known results for compounds:
INSERT INTO measurements (compound, endpoint_label, result) VALUES
  ('Cc1ccccc1-n1c(-c2ccccc2)c(C(=O)N2CCNCC2)n(CCNC(=O)c2ccccc2F)c1=O', 'IC50', '> 1 µM'),
  ('COc1ccccc1-n1c(-c2ccccc2)c(C(=O)N2CCNCC2)n(CCCNC(=O)CC(C)C)c1=O', 'IC50', '> 1 µM'),
  ('CC(=O)N1CCCC(n2c(-c3ccccc3)c(C(=O)N3CCNC[C@H]3Cc3ccccc3)[nH]c2=O)C1 (stereo partly shown) [Example 115]', 'IC50', '0.5 to 1 µM');

## Input Which IC50 value belongs to O=C(c1c(-c2ccccc2)n(C2CCCN(S(=O)(=O)c3ccccc3)C2)c(=O)n1Cc1cccc(Oc2ccccc2)c1)N1CCNCC1 (stereo not shown) ?
## Output 0.1 to 0.5 µM

## Input Which IC50 value belongs to O=C(NCCCn1c(C(=O)N2CCNCC2)c(-c2ccccc2)n(-c2cccc(N3CCOCC3)c2)c1=O)Nc1ccccc1 ?
## Output 0.5 to 1 µM

## Input Which IC50 value belongs to COc1ccc(S(=O)(=O)NCCCn2c(C(=O)N3CCNCC3)c(-c3ccccc3)n(-c3cccc(N4CCOCC4)c3)c2=O)cc1 ?
## Output 0.5 to 1 µM

## Input Which IC50 value belongs to COCCCOc1cccc(-n2c(-c3ccccc3)c(C(=O)N3CCNCC3)[nH]c2=O)n1 ?
## Output > 1 µM

Numbers sourced from patent US8148367B2.
